Attribution: patent US20040087633A1

- Test system: VRE C6487
- Protocol Summary: Anti-microbial activity test in vitro (agar dilution MIC)
- Format: cell-based, Enterococcus faecium
- Assay Setup: VRE C6487; Agar Dilution method, Mueller Hinton Agar, 18 hours at 37° C.
Measurement Label: Minimum inhibition concentration (MIC) (µg/mL)

# Compound, Target Under Test, Endpoint Result
measured = [
    ("CC(=O)NC[C@H]1CN(c2ccc(N3CCC(=CC(C)OC(=O)CCl)CC3)c(F)c2)C(=O)O1 (stereo partly shown)", "VRE C6487", 4),
    ("CC(=O)NC[C@H]1CN(c2ccc(N3CCC(=CC(C)O)CC3)c(F)c2)C(=O)O1 (stereo partly shown)", "VRE C6487", 4),
    ("CC(=O)NC[C@H]1CN(c2ccc(N3CCC(=CC(C)OC(=O)C(Cl)Cl)CC3)c(F)c2)C(=O)O1 (stereo partly shown)", "VRE C6487", 4),
    ("CC(=S)NC[C@H]1CN(c2ccc(N3CCC(=CC#N)CC3)c(F)c2)C(=O)O1", "VRE C6487", 0.5),
    ("CC(=O)NC[C@H]1CN(c2ccc(N3CCC(=CC(C)OC(C)=O)CC3)c(F)c2)C(=O)O1 (stereo partly shown)", "VRE C6487", 4),
    ("CC(=O)NC[C@H]1CN(c2ccc(N3CCC(=C(C)C#N)CC3)c(F)c2)C(=O)O1", "VRE C6487", 0.5),
    ("CCOC(=O)C(Cl)=C1CCN(c2ccc(N3C[C@H](CNC(C)=O)OC3=O)cc2F)CC1", "VRE C6487", 2),
    ("CC(=O)NC[C@H]1CN(c2ccc(N3CCC(=CC(C)=NO)CC3)c(F)c2)C(=O)O1", "VRE C6487", 4),
    ("CC(=O)NC[C@H]1CN(c2ccc(N3CCC(=Cc4cc(-c5csnc5C)no4)CC3)c(F)c2)C(=O)O1", "VRE C6487", 4),
    ("CON=C(C)C=C1CCN(c2ccc(N3C[C@H](CNC(C)=O)OC3=O)cc2F)CC1", "VRE C6487", 4),
    ("CCOC(=O)C(C)=C1CCN(c2ccc(N3C[C@H](CNC(C)=O)OC3=O)cc2F)CC1", "VRE C6487", 1),
    ("CON=CC=C1CCN(c2ccc(N3C[C@H](CNC(C)=O)OC3=O)cc2F)CC1", "VRE C6487", 4),
    ("CC(=O)NC[C@H]1CN(c2ccc(N3CCC(=CC(=O)O)CC3)c(F)c2)C(=O)O1", "VRE C6487", 1),
    ("CC(=O)NC[C@H]1CN(c2ccc(N3CCC(=Cc4cc(-c5cccs5)no4)CC3)c(F)c2)C(=O)O1", "VRE C6487", 16),
    ("CC(=O)NC[C@H]1CN(c2ccc(N3CCC(=CC=NO)CC3)c(F)c2)C(=O)O1", "VRE C6487", 4),
    ("CCOC(=O)C=C1CCN(c2ccc(N3C[C@H](CNC(C)=O)OC3=O)cc2F)CC1", "VRE C6487", 8),
]

* * *

- Test system: E. faecium C6301
- Protocol Summary: Anti-microbial activity test in vitro (agar dilution MIC)
- Type: cell-based
- Assay Setup: E. faecium C6301; Agar Dilution method, Mueller Hinton Agar, 18 hours at 37° C.
Reported Minimum inhibition concentration (MIC) values follow for various compounds

# Compound, Unit Annotation, Minimum inhibition concentration (MIC)
measured = [
    ("CC(=O)NC[C@H]1CN(c2ccc(N3CCC(=CC(C)OC(=O)C(Cl)Cl)CC3)c(F)c2)C(=O)O1 (some centres unmarked) [Compound 25]", "µg/mL", 8),
    ("CC(=O)NC[C@H]1CN(c2ccc(N3CCC(=CC#N)CC3)c(F)c2)C(=O)O1 [Compound 8]", "µg/mL", 2),
    ("CC(=O)NC[C@H]1CN(c2ccc(N3CCC(=CC(C)=NO)CC3)c(F)c2)C(=O)O1 [Compound 20]", "µg/mL", 4),
    ("CC(=O)NC[C@H]1CN(c2ccc(N3CCC(=C(C)C#N)CC3)c(F)c2)C(=O)O1 [Compound 16]", "µg/mL", 2),
    ("CON=CC=C1CCN(c2ccc(N3C[C@H](CNC(C)=O)OC3=O)cc2F)CC1 [Compound 19]", "µg/mL", 4),
    ("CC(=O)NC[C@H]1CN(c2ccc(N3CCC(=CC(C)OC(=O)CCl)CC3)c(F)c2)C(=O)O1 (some centres unmarked) [Compound 24]", "µg/mL", 8),
    ("CON=C(C)C=C1CCN(c2ccc(N3C[C@H](CNC(C)=O)OC3=O)cc2F)CC1 [Compound 21]", "µg/mL", 8),
    ("CC(=O)NC[C@H]1CN(c2ccc(N3CCC(=CC=NO)CC3)c(F)c2)C(=O)O1 [Compound 18]", "µg/mL", 4),
    ("CC(=O)NC[C@H]1CN(c2ccc(N3CCC(=Cc4cc(-c5cccs5)no4)CC3)c(F)c2)C(=O)O1 [Compound 9]", "µg/mL", 16),
    ("CC(=S)NC[C@H]1CN(c2ccc(N3CCC(=CC#N)CC3)c(F)c2)C(=O)O1 [Compound 26]", "µg/mL", 1),
    ("CCOC(=O)C(C#N)=C1CCN(c2ccc(N3C[C@H](CNC(C)=O)OC3=O)cc2F)CC1 [Compound 7]", "µg/mL", 2),
    ("CC(=O)C=C1CCN(c2ccc(N3C[C@H](CNC(C)=O)OC3=O)cc2F)CC1 [Compound 12]", "µg/mL", 8),
    ("CC(=O)NC[C@H]1CN(c2ccc(N3CCC(=Cc4cc(-c5csnc5C)no4)CC3)c(F)c2)C(=O)O1 [Compound 10]", "µg/mL", 8),
    ("CC(=O)NC[C@H]1CN(c2ccc(N3CCC(=CC(C)OC(C)=O)CC3)c(F)c2)C(=O)O1 (some centres unmarked) [Compound 23]", "µg/mL", 8),
    ("CCOC(=O)C=C1CCN(c2ccc(N3C[C@H](CNC(C)=O)OC3=O)cc2F)CC1 [Compound 11]", "µg/mL", 8),
    ("CC(=O)NC[C@H]1CN(c2ccc(N3CCC(=CC=O)CC3)c(F)c2)C(=O)O1 [Compound 17]", "µg/mL", 4),
    ("CCOC(=O)C(Cl)=C1CCN(c2ccc(N3C[C@H](CNC(C)=O)OC3=O)cc2F)CC1 [Compound 15]", "µg/mL", 2),
]

* * *

- System: CRSA C1062
- Protocol Summary: Anti-microbial activity test in vitro (agar dilution MIC)
- Format: cell-based, Staphylococcus aureus
- Assay Setup: CRSA C1062; Agar Dilution method, Mueller Hinton Agar, 18 hours at 37° C.

# Structure Smiles, Minimum inhibition concentration (MIC)
rows = [
    ("CCOC(=O)C(Cl)=C1CCN(c2ccc(N3C[C@H](CNC(C)=O)OC3=O)cc2F)CC1", "16 µg/mL"),
    ("CC(=S)NC[C@H]1CN(c2ccc(N3CCC(=CC#N)CC3)c(F)c2)C(=O)O1", "2 µg/mL"),
    ("CCOC(=O)C=C1CCN(c2ccc(N3C[C@H](CNC(C)=O)OC3=O)cc2F)CC1", "8 µg/mL"),
    ("CON=C(C)C=C1CCN(c2ccc(N3C[C@H](CNC(C)=O)OC3=O)cc2F)CC1", "32 µg/mL"),
]
